Measured pIC50 values are reported for all entries that follow.
target-or-test-system: JAK2 (Homo sapiens)
Construct: host or cells: baculovirus expression system
Sequence (O60674 whole entry): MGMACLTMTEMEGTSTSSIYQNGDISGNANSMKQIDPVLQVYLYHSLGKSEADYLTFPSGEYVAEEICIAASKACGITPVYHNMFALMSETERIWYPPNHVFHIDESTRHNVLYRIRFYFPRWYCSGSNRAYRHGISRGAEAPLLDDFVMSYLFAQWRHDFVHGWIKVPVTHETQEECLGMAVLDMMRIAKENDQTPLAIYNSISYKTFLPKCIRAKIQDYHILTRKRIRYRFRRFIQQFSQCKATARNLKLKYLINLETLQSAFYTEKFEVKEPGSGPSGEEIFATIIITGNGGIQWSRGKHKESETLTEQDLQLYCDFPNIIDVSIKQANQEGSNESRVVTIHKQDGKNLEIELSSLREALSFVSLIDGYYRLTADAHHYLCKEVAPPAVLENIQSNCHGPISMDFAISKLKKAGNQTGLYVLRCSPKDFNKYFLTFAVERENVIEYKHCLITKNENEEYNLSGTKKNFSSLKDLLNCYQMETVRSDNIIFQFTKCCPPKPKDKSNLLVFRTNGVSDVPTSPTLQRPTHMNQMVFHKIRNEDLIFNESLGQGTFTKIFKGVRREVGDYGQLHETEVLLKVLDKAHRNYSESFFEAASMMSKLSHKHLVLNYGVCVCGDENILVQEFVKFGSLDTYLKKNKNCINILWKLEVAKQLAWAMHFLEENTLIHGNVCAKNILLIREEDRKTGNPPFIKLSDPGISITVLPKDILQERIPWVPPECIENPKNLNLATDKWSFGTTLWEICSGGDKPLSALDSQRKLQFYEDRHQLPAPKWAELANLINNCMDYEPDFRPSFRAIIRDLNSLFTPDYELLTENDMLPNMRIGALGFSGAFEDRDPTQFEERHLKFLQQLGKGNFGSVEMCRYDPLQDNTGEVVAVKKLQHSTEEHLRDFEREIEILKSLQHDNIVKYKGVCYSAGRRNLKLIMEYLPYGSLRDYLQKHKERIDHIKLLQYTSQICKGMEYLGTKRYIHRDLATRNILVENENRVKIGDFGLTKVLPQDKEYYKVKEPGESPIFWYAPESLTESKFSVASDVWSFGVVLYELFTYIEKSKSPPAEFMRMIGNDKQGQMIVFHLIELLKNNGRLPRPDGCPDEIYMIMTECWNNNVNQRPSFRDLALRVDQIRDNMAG
assay-notes: Recombinant Human JAK2 Kinase Assay (TRF)
Assay type: biochemical
experimental-parameters: JAK2 Kinase Inhibition; read-out: JAK2 Potency
pIC50: −log10 of the molar value.

Observe how each entry below is paired with its result.
cpd-smiles	reported-metric	measured
COc1ccccc1-c1ccc2cnc(-c3nc4cc(N5CCN(C)CC5)ccc4[nH]3)nn12	pIC50	5.00 to 6.00
COc1c(Nc2ncc3ccc(-c4ccccc4N(C)S(C)(=O)=O)n3n2)ccc(N2CCN(C[C@H](C)O)CC2)c1F	pIC50	5.00 to 6.00
COc1cc(N2CCC[C@H](CN3CCN(C)CC3)C2)ccc1Nc1ncc2ccc(-c3ccccc3OC)n2n1	pIC50	6.00 to 7.00
CN(c1ccccc1-c1ccc2cnc(Nc3ccc(C4CCN(CC(N)=O)CC4)cc3)nn12)S(C)(=O)=O	pIC50	> 7.00

Incoming: Please look up its pIC50: "COc1cc(N2CCC(C(=O)N3CCN(C)CC3)CC2)ccc1Nc1ncc2ccc(-c3ccccc3N(C)S(C)(=O)=O)n2n1"
Outgoing: 6.00 to 7.00

Incoming: Please look up its pIC50: "COc1cc(N2CCN(C3CCN(C)CC3)CC2)ccc1Nc1ncc2ccc(-c3ccccc3OC)n2n1"
Outgoing: > 7.00

Incoming: Please look up its pIC50: "CS(=O)(=O)c1ccc(-c2ccc3cnc(Nc4ccc(N5CCN(CCO)CC5)cc4)nn23)cc1"
Outgoing: > 7.00
